# system: feline FcRn complex (FcRn-α subunit and β-microglobulin) (feline)
# measurement notes: SPR (Biacore), FcRn on SA chip, pH 6
pKd: −log10 of the molar value.
Lab note: compare pKd against 10. Equal or greater, write Yes. Smaller, write No.

Problem: Is pKd at least 10? Consider feline IgG1a mutant ID No. 290: S252Y, S428Y, Q311W, D312P (antibody, part only; not given: Variable domains, not shown: another chain or arm of the molecule; small tags and cut ends) constant: ASTTAPSVFPLAPSCGTTSGATVALACLVLGYFPEPVTVSWNSGALTSGVHTFPAVLQASGLYSLSSMVTVPSSRWLSDTFTCNVAHPPSNTKVDKTVRKTDHPPGPKPCDCPKCPPPEMLGGPSIFIFPPKPKDTLYISRTPEVTCLVVDLGPDDSDVQITWFVDNTQVYTAKTSPREEQFNSTYRVVSVLPILHWPWLKGKEFKCKVNSKSLPSPIERTISKAKGQPHEPQVYVLPPAQEELSRNKVSVTCLIKSFHPPDIAVEWEITGQPEPENNYRTTPPQLDSDGTYFVYSKLSVDRSHWQRGNTYTCSVYHEALHSHHTQKSLTQSPGK
Result: No

Problem: Is pKd at least 10? Consider feline IgG1a mutant ID No. 316: S428M, A431K (antibody, part only; not given: Variable domains, not shown: another chain or arm of the molecule) constant: ASTTAPSVFPLAPSCGTTSGATVALACLVLGYFPEPVTVSWNSGALTSGVHTFPAVLQASGLYSLSSMVTVPSSRWLSDTFTCNVAHPPSNTKVDKTVRKTDHPPGPKPCDCPKCPPPEMLGGPSIFIFPPKPKDTLSISRTPEVTCLVVDLGPDDSDVQITWFVDNTQVYTAKTSPREEQFNSTYRVVSVLPILHQDWLKGKEFKCKVNSKSLPSPIERTISKAKGQPHEPQVYVLPPAQEELSRNKVSVTCLIKSFHPPDIAVEWEITGQPEPENNYRTTPPQLDSDGTYFVYSKLSVDRSHWQRGNTYTCSVMHEKLHSHHTQKSLTQSPGK
Result: No

Problem: Is pKd at least 10? Consider feline IgG1a mutant ID No. 346: S252Y, S428M, S434F, G402R (antibody, part only; not given: Variable domains, not shown: another chain or arm of the molecule) constant: ASTTAPSVFPLAPSCGTTSGATVALACLVLGYFPEPVTVSWNSGALTSGVHTFPAVLQASGLYSLSSMVTVPSSRWLSDTFTCNVAHPPSNTKVDKTVRKTDHPPGPKPCDCPKCPPPEMLGGPSIFIFPPKPKDTLYISRTPEVTCLVVDLGPDDSDVQITWFVDNTQVYTAKTSPREEQFNSTYRVVSVLPILHQDWLKGKEFKCKVNSKSLPSPIERTISKAKGQPHEPQVYVLPPAQEELSRNKVSVTCLIKSFHPPDIAVEWEITGQPEPENNYRTTPPQLDSDRTYFVYSKLSVDRSHWQRGNTYTCSVMHEALHFHHTQKSLTQSPGK
Result: Yes

Problem: Is pKd at least 10? Consider feline IgG1a mutant ID No. 267: S252F, S434F, Q311W (antibody, part only; not given: Variable domains, not shown: another chain or arm of the molecule) constant: ASTTAPSVFPLAPSCGTTSGATVALACLVLGYFPEPVTVSWNSGALTSGVHTFPAVLQASGLYSLSSMVTVPSSRWLSDTFTCNVAHPPSNTKVDKTVRKTDHPPGPKPCDCPKCPPPEMLGGPSIFIFPPKPKDTLFISRTPEVTCLVVDLGPDDSDVQITWFVDNTQVYTAKTSPREEQFNSTYRVVSVLPILHWDWLKGKEFKCKVNSKSLPSPIERTISKAKGQPHEPQVYVLPPAQEELSRNKVSVTCLIKSFHPPDIAVEWEITGQPEPENNYRTTPPQLDSDGTYFVYSKLSVDRSHWQRGNTYTCSVSHEALHFHHTQKSLTQSPGK
Result: No

Problem: Is pKd at least 10? Consider feline IgG1a mutant ID No. 370: S252Y, S434R, Q311H (antibody, part only; not given: variable domains and light chain, not shown: another chain or arm of the molecule) constant: ASTTAPSVFPLAPSCGTTSGATVALACLVLGYFPEPVTVSWNSGALTSGVHTFPAVLQASGLYSLSSMVTVPSSRWLSDTFTCNVAHPPSNTKVDKTVRKTDHPPGPKPCDCPKCPPPEMLGGPSIFIFPPKPKDTLYISRTPEVTCLVVDLGPDDSDVQITWFVDNTQVYTAKTSPREEQFNSTYRVVSVLPILHHDWLKGKEFKCKVNSKSLPSPIERTISKAKGQPHEPQVYVLPPAQEELSRNKVSVTCLIKSFHPPDIAVEWEITGQPEPENNYRTTPPQLDSDGTYFVYSKLSVDRSHWQRGNTYTCSVSHEALHRHHTQKSLTQSPGK
Result: No

Problem: Is pKd at least 10? Consider feline IgG1a mutant ID No. 254: S428M, S434N (antibody, part only; not given: Variable domains, not shown: another chain or arm of the molecule) constant: ASTTAPSVFPLAPSCGTTSGATVALACLVLGYFPEPVTVSWNSGALTSGVHTFPAVLQASGLYSLSSMVTVPSSRWLSDTFTCNVAHPPSNTKVDKTVRKTDHPPGPKPCDCPKCPPPEMLGGPSIFIFPPKPKDTLSISRTPEVTCLVVDLGPDDSDVQITWFVDNTQVYTAKTSPREEQFNSTYRVVSVLPILHQDWLKGKEFKCKVNSKSLPSPIERTISKAKGQPHEPQVYVLPPAQEELSRNKVSVTCLIKSFHPPDIAVEWEITGQPEPENNYRTTPPQLDSDGTYFVYSKLSVDRSHWQRGNTYTCSVMHEALHNHHTQKSLTQSPGK
Result: No

These data points were gathered from patent US20240400708A1.
